Values compiled from PubChem BioAssay.

assay: HUVEC growth inhibition – cell-based, human, primary screen (AID 575); settings: HUVEC proliferation, CellTiter-Glo luminescence, 72 h; at 10 µM; active compounds read low;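 also: 100% = median of untreated cell wells with 0.1% DMSO on each plate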

{"molecule": "COCCCNC(=O)Cn1cc2c(n1)CCC(C)C2 (centres undefined)", "uom": "%", "viability": 90.5}
{"molecule": "Cc1ccc(-n2c3c(cc(C(=O)NCCCN4CCOCC4)c2=O)C(=O)CC(C)(C)C3)cc1", "uom": "%", "viability": 87}
{"molecule": "COc1ccc(-c2nc(N3CCCC3)[nH]c(=O)c2C#N)cc1", "uom": "%", "viability": 97}
{"molecule": "CC(CCC(=O)Nc1nncs1)C(=O)O (centres undefined)", "uom": "%", "viability": 101}

###

assay: S. cerevisiae growth inhibition in restrictive medium, OD615, pilot screen, restrictive growth control, yeast lifespan reduction project (AID 706); conditions: OD615, 48 h, at 10 µM, active compounds read high;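 also: modified DeaD lifespan yeast strain shifted to restrictive glucose medium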
growth inhibition of -10% or higher: t. Under -10%: f.

{"compound": "Nc1c(C(=O)Nc2ccc(Cl)cc2)oc2ccccc12", "classLabel": "f"}
{"compound": "CCC(Oc1ccccc1)C(=O)Nc1ccccc1OC (stereo not given)", "classLabel": "t"}
{"compound": "CCOC(=O)N1CCC(c2cc(=O)n3[nH]cc(C(=O)OC)c3n2)CC1", "classLabel": "t"}
{"compound": "CCOC(=O)N1CCN(CC(=O)Nc2ccc(C)cc2)CC1", "classLabel": "t"}
{"compound": "CC1Cn2c(nnc2-c2ccccc2O)S1 (stereo not given)", "classLabel": "f"}
{"compound": "CC(=O)C1=C(C)NC(SCC(=O)c2ccc(C)cc2)=C(C#N)C1c1ccco1 (stereo not given)", "classLabel": "t"}
{"compound": "COC(=O)CN1C(=O)C(O)(CC(=O)c2ccc(C)cc2)c2cc(Br)ccc21 (stereo not given)", "classLabel": "t"}
{"compound": "Cn1c(C(=O)NCC2CCCO2)cc2c(=O)n(C)c3ccccc3c21 (stereo not given)", "classLabel": "t"}
{"compound": "CCc1cc2c(NCCC(=O)O)ncnc2s1", "classLabel": "f"}
{"compound": "CCOc1ccc(Cn2nnc(C(=O)Nc3ccc(OC)cc3OC)c2N)cc1", "classLabel": "t"}

###

The following compounds are listed with their measured inhibition values.
assay: RAM pathway blockade in budding yeast – dse1pr::URA3 reporter, 5-FOA selection, pilot screen (AID 869);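 also: 0% = DMSO wells with no growth and 100% = 10 µM 1-NA-PP1 with full growth; RAM network block rescues cells from 5-FOA so hits raise OD615 growth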; settings: S. cerevisiae dse1pr::URA3 5-FOA growth, OD615, 2 d; at 10 µM; active compounds read high; strain carries analog-sensitive mutant Cbk1 kinase

{"compound": "CC1(C)CC(=O)C=C(Nc2ccc(OCC(F)(F)C(F)F)cc2)C1", "uom": "%", "inhibition": -0.6}
{"compound": "O=c1nc2s/c(=C\\c3ccco3)c(=O)n2nc1Cc1ccccc1", "uom": "%", "inhibition": 2.04}
{"compound": "Cc1ccc(C)c(NC(=O)C2CCC(C)(C(=O)O)C2(C)C)c1 (stereo not drawn)", "uom": "%", "inhibition": 0.355}
{"compound": "CC1=C(C(N)=O)C(c2ccccn2)n2nc(-c3ccccc3Cl)nc2N1 (stereo not drawn)", "uom": "%", "inhibition": 1}
{"compound": "Cn1c(=O)c2c(nc(SCCNS(=O)(=O)c3ccccc3)n2C)n(C)c1=O", "uom": "%", "inhibition": 1.46}
{"compound": "O=C(COC(=O)c1cnccn1)c1ccc2c(c1)CCCC2", "uom": "%", "inhibition": 1.32}
{"compound": "COc1ccc(NC(=O)Nc2ccc(N3CCCC3=O)cc2)cc1OC", "uom": "%", "inhibition": 0.135}
{"compound": "COc1ccc(N(CC(=O)N2CCc3ccccc3C2)S(=O)(=O)c2c(C)[nH]c(=O)[nH]c2=O)cc1", "uom": "%", "inhibition": 2.77}
{"compound": "Cc1cc2nc(-c3ccco3)cc(C(F)(F)F)n2n1", "uom": "%", "inhibition": 1.89}
{"compound": "CN1CCN(C(=O)c2ccccc2NC(=O)c2cccs2)CC1", "uom": "%", "inhibition": 0.45}
{"compound": "CCOC(=O)N1CCN(CC(O)c2ccc3cc[nH]c3c2)CC1 (stereo not drawn)", "uom": "%", "inhibition": 1.44}
{"compound": "COc1ccc(N(C)C(=O)c2ccc3snnc3c2)cc1", "uom": "%", "inhibition": 2.6}
{"compound": "CCOc1ccccc1NC(=O)CC1Nc2cc(C)c(C)cc2NC1=O (stereo not drawn)", "uom": "%", "inhibition": 0.04}
{"compound": "Cc1c(NC(=O)c2noc3c2CCc2ccccc2-3)c(=O)n(-c2ccccc2)n1C", "uom": "%", "inhibition": 1.05}
{"compound": "COc1ccc(Cl)cc1NC(=O)c1cnc2n(c1=O)CCS2", "uom": "%", "inhibition": 2.78}
{"compound": "CCOC(=O)Nc1c(O)ccc2oc(C)c(-c3ccccc3)c12", "uom": "%", "inhibition": 1.51}
{"compound": "COc1ccc(C)cc1NC(=O)CNC(=O)Cn1ccc2ccccc2c1=O", "uom": "%", "inhibition": 1.96}
{"compound": "O=C(O)c1ccc(-c2ccc(O)c(F)c2)cc1", "uom": "%", "inhibition": -0.17}
{"compound": "CCN1CCN(C(=O)C2CC(c3ccc(F)cc3)=NO2)CC1 (stereo not drawn)", "uom": "%", "inhibition": 0.095}
{"compound": "C/C=C/Cn1c(SCCCc2ccccc2)nc2c1c(=O)[nH]c(=O)n2C", "uom": "%", "inhibition": 1.32}
{"compound": "O=C(OCCN(CCOC(=O)c1ccncc1)S(=O)(=O)c1cccs1)c1ccncc1", "uom": "%", "inhibition": 1.63}
{"compound": "Cn1c(NC(=O)C2CCCC2)cc(=O)n(C)c1=O", "uom": "%", "inhibition": 0.58}
{"compound": "Brc1cccc(-c2nnc(SCc3ccon3)n2-c2ccccc2)c1", "uom": "%", "inhibition": 1.46}
{"compound": "COc1ccc(OC)c(S(=O)(=O)N2CCN(c3c(C)cccc3C)CC2)c1", "uom": "%", "inhibition": 1.79}
{"compound": "Cc1c(C(=O)OCCOC(C)C)[nH]c2c1C(=O)CC(c1ccco1)C2 (stereo not drawn)", "uom": "%", "inhibition": 0.735}
{"compound": "Cc1ccc(S(=O)(=O)NCC(=O)N2CCCCC2)cc1", "uom": "%", "inhibition": 0.465}
{"compound": "O=C1CCCCCC1C1(O)C(=O)Nc2ccccc21 (stereo not drawn)", "uom": "%", "inhibition": 1.43}
{"compound": "CCOC(=O)C(C)Sc1nnc(Cc2cc(=O)[nH]c(=O)[nH]2)n1-c1ccc(Cl)cc1 (stereo not drawn)", "uom": "%", "inhibition": 1.45}
{"compound": "Cn1c(=O)cc(NCCc2ccccc2)[nH]c1=O", "uom": "%", "inhibition": 0.595}
{"compound": "CCOC(=O)CC1C(=O)NCCN1C(=O)c1cc2c(=O)n3cccc(C)c3nc2s1 (stereo not drawn)", "uom": "%", "inhibition": -0.035}
{"compound": "CC(=O)NCCc1nc2ccccc2[nH]1", "uom": "%", "inhibition": -0.365}
{"compound": "O=C1c2ccccc2C(=O)N1C/C=C/CN1C(=O)c2ccccc2C1=O", "uom": "%", "inhibition": 3.1}
{"compound": "CC1=C(C(N)=O)C(c2cccc(O)c2)n2nc(CCCO)nc2N1 (stereo not drawn)", "uom": "%", "inhibition": 2.02}
